Would you kindly list log10 of IC50 for each of these molecules?
test system: MES-SA; assay: Cytotoxicity against human MES-SA cells transfected with mCherry fluorescent protein assessed as inhibition of cell proliferation incubated for 72 hrs by fluorescent assay; format: functional, cell-based; settings: Homo sapiens, MES-SA, 72 h; read-out: pIC50 (converted)
Give log10 of IC50, with IC50 taken in nM.

q: Need log10 of IC50, item C/C(=N\NC(=S)Nc1ccccc1C)c1ccccn1
a: 1.47

q: Need log10 of IC50, item C/C(=N\NC(=S)Nc1ccc(C)cc1)c1ccccn1
a: 1.62

q: Need log10 of IC50, item C/C(=N\NC(=S)Nc1cccc(C(F)(F)F)c1)c1ccccn1
a: 3.98

q: Need log10 of IC50, item FC(F)(F)c1ccccc1NC(=S)N/N=C/c1ccccn1
a: 2.08

q: Need log10 of IC50, item COc1ccc(NC(=S)N/N=C(\C)c2ccccn2)cc1
a: 2.36

q: Need log10 of IC50, item C/C(=N\Nc1ccccn1)c1ccc2ccccc2n1
a: 2.68

q: Need log10 of IC50, item Cc1cc(/C=N/Nc2ccccn2)nc2ccccc12
a: 2.73

q: Need log10 of IC50, item COc1cc(N/N=C(\C)c2ccccn2)ncn1
a: 2.53
